test_summary: AUC (0 to t) in ICR mouse at 1 mg/kg, iv measured upto 24 hrs by LC-MS/MS analysis
Type: ADME, organism-based
Design: dose 1 mg/kg, time < 24 hrs, route iv
condition_notes: in vivo
Listing of recorded AUC(0-t) at 24 h by entry.
Report as a plain number; the unit µg·h/mL is understood.

CNc1nc2ccccc2n1-c1nc(N2CCOC[C@H]2C)c2scc(S(C)(=O)=O)c2n1	0.954

Documented AUC(0-t) at 24 h of "C[C@@H]1COCCN1c1nc(-n2c(N)nc3ccccc32)nc2c(S(C)(=O)=O)csc12" : 0.221

====

target_or_system: Serine/threonine-protein kinase ATR (Homo sapiens)
Sequence (Q13535 whole entry): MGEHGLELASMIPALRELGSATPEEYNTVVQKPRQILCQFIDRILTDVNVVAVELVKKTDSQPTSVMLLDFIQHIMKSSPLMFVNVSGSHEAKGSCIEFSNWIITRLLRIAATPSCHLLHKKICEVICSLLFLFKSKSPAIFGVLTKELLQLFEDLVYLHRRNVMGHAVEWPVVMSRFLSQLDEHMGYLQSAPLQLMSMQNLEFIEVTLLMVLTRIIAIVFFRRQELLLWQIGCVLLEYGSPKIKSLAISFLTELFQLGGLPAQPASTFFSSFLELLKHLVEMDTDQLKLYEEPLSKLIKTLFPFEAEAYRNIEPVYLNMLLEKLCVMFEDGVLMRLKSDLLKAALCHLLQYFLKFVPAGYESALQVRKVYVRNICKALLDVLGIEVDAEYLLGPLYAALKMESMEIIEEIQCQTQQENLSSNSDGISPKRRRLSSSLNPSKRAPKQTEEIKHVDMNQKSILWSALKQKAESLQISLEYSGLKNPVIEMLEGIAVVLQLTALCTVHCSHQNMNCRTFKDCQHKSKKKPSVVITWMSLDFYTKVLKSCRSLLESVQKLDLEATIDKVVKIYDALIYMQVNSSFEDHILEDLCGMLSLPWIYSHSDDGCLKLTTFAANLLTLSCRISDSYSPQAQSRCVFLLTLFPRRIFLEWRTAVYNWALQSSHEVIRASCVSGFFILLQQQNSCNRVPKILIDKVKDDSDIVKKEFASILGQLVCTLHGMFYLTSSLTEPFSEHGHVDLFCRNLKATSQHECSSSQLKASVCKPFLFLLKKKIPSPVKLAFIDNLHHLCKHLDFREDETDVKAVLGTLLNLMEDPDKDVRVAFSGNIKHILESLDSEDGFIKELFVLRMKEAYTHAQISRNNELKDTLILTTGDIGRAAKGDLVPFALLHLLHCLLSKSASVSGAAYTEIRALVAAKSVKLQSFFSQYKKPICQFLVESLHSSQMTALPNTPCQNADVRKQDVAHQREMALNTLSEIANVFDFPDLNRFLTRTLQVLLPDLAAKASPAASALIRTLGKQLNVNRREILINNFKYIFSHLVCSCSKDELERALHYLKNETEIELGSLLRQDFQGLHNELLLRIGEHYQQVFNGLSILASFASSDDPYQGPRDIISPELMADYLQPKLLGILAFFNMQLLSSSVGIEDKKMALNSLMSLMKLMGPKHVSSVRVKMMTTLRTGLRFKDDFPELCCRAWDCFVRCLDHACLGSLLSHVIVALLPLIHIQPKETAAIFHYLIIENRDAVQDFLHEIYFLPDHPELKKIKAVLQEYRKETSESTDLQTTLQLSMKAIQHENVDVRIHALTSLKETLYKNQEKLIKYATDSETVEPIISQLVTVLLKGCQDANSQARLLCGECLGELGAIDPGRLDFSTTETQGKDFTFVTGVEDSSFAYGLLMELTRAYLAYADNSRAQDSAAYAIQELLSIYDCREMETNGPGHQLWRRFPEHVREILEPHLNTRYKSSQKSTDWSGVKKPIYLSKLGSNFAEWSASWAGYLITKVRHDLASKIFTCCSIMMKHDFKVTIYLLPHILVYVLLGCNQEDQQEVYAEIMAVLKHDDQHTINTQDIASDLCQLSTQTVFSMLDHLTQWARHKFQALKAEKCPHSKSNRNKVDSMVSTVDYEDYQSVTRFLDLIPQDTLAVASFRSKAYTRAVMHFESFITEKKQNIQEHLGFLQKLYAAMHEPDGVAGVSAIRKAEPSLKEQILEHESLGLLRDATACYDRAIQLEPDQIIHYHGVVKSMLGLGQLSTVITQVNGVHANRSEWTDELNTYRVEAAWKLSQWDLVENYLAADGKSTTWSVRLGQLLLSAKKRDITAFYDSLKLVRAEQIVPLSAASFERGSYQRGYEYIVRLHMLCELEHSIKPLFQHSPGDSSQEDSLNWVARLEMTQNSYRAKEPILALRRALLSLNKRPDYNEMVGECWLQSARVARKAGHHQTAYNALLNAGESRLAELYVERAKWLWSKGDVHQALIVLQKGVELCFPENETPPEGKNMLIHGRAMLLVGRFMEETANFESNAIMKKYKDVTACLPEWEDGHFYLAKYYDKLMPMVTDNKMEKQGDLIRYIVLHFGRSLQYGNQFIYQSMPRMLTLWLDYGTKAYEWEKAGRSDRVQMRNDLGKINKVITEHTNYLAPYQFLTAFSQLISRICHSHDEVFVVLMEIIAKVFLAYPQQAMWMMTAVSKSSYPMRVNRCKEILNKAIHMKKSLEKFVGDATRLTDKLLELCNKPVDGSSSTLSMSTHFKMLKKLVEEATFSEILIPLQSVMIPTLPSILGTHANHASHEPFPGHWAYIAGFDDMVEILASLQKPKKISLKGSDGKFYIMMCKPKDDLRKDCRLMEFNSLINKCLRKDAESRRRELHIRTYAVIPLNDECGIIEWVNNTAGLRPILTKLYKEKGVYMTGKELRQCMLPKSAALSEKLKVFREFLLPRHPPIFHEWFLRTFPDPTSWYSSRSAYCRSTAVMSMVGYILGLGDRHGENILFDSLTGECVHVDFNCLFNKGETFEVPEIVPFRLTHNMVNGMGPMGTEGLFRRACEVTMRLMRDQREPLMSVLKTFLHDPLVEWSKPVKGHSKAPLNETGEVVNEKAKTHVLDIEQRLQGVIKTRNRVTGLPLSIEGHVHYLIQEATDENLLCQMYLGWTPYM
assay_endpoint: IC50 (nM)
Report as a plain number; the unit nM is understood.

Guide cases for IC50, answers given:
C[C@@H]1COCCN1c1nc(-c2ccnc3[nH]ccc23)nc2c(S(C)(=N)=O)csc12 (stereo partly drawn)	5.4
C[C@@H]1COCCN1c1nc(-c2ccnc3[nH]ccc23)nc2c(S(C)(=O)=O)csc12	5.8
CCCS(=O)(=O)c1csc2c(N3CCOC[C@H]3C)nc(-n3c(NC)nc4ccccc43)nc12	16.8
CCP(=O)(CC)c1csc2c(N3CCOC[C@H]3C)nc(-n3c(NC)nc4ccccc43)nc12	6.2
CC(O)c1csc2c(N3CCOC[C@H]3C)nc(-c3ccnc4[nH]ccc34)nc12 (stereo partly drawn)	19.2

Reported Serine/threonine-protein kinase ATR (Homo sapiens) IC50 for item "CC(=O)Nc1nc2ccccc2n1-c1nc(N2CCOC[C@H]2C)c2scc(S(C)(=O)=O)c2n1" was 13.2

Reported Serine/threonine-protein kinase ATR (Homo sapiens) IC50 for item "Cc1nc2ccccc2n1-c1nc(N2CCOC[C@H]2C)c2scc(S(C)(=O)=O)c2n1" was 3.5

====

target_or_system: Serine/threonine-protein kinase ATR (Homo sapiens)
Listing of recorded IC50 by entry.
Report as a plain number; the unit nM is understood.

CSc1nc2ccccc2n1-c1nc(N2CCOC[C@H]2C)c2scc(S(C)(=O)=O)c2n1	113
CNc1nc2ccccc2n1-c1nc(N2CCOC[C@H]2C)c2scc(S(C)(=O)=O)c2n1	1.5
CNc1nc2ccccc2n1-c1nc(N2CCOC[C@H]2C)c2scc(P(C)(C)=O)c2n1	6.2
CNc1nc2ccccc2n1-c1nc(N2CCOC[C@H]2C)c2scc([S+](C)[O-])c2n1 (stereo partly specified)	8.5
C[C@@H]1COCCN1c1nc(-n2c(=O)[nH]c3ccccc32)nc2c(S(C)(=O)=O)csc12	123

Documented IC50 of "C[C@@H]1COCCN1c1nc(-c2cccc3[nH]ncc23)nc2c(S(C)(=O)=O)csc12" : 9.6
